Field: Ki. System: Beta-secretase 1 (Homo sapiens). Provenance: assorted publications.
attribute-measured: Ki (nM)

{"molecule": "Cn1ccc(C(=O)Nc2ccc(F)c([C@@]3(C)N=C(N)[C@](C)(F)CC3(F)F)c2)n1", "attribute-measured": "Ki", "readout-relation": "=", "numeric-result": 4800}
{"molecule": "CN1C(=N)N[C@](C)(c2sc(-c3cccc(-c4nnc(C5CC5)o4)c3)cc2F)CS1(=O)=O", "attribute-measured": "Ki", "readout-relation": "=", "numeric-result": 177}
{"molecule": "[2H]C([2H])([2H])Oc1ccc(C(=O)Nc2ccc(F)c([C@@]3(C)N=C(N)[C@@](C)(F)C[C@@H]3F)c2)nc1", "attribute-measured": "Ki", "readout-relation": "=", "numeric-result": 20}
{"molecule": "O=C(C1CNCCC1c1ccc(COc2ccccc2C(F)(F)F)cc1)N1CCc2ccccc2C1 (stereo not shown)", "attribute-measured": "Ki", "readout-relation": ">", "numeric-result": 30000}
{"molecule": "COc1ccc(C(=O)Nc2cc(F)c(F)c([C@]34COC[C@H]3C[C@@](F)(CF)C(N)=N4)c2)nc1", "attribute-measured": "Ki", "readout-relation": "=", "numeric-result": 230}
{"molecule": "CN1C[C@@](C)(c2cc(NC(=O)C(F)F)ccc2F)NC(=N)C(C)(C)S1(=O)=O", "attribute-measured": "Ki", "readout-relation": "=", "numeric-result": 1200}
{"molecule": "COc1ccc(-c2cc(COc3ccccc3C(F)(F)F)c(C3=CCNCC3)cc2COc2ccccc2C(F)(F)F)cc1", "attribute-measured": "Ki", "readout-relation": "<", "numeric-result": 3000}
{"molecule": "CN1C(=N)N[C@]2(C)c3cc(NC(=O)c4ccccn4)ccc3OCC[C@H]2S1(=O)=O", "attribute-measured": "Ki", "readout-relation": "=", "numeric-result": 508}
{"molecule": "C[C@@]1(c2cc(N)ccc2F)CS(=O)(=O)C2(CCOCC2)C(=N)N1", "attribute-measured": "Ki", "readout-relation": "=", "numeric-result": 7020}
{"molecule": "C[C@@]1(c2cc(NC(=O)c3ccc(F)cn3)ccc2F)CS(=O)(=O)C2(CCOCC2)C(=N)N1", "attribute-measured": "Ki", "readout-relation": "=", "numeric-result": 10.9}
{"molecule": "CC1(C)C(=N)N[C@@]2(CCOc3ccc(NC(=O)c4cnsn4)cc32)CS1(=O)=O", "attribute-measured": "Ki", "readout-relation": "=", "numeric-result": 3}
{"molecule": "C[C@@]1(c2cc([N+](=O)[O-])ccc2F)CS(=O)(=O)[C@@]2(CCOC2)C(=N)N1", "attribute-measured": "Ki", "readout-relation": "=", "numeric-result": 6120}
{"molecule": "CC1(C)C(=N)N[C@@]2(CCOc3ccc(NC(=O)C(F)F)cc32)CS1(=O)=O", "attribute-measured": "Ki", "readout-relation": "=", "numeric-result": 1280}
{"molecule": "COc1nc(N2C[C@H]3C(=O)N(C)C(=N)N[C@@]3(c3ccccc3F)C2)nc(C)c1Cl", "attribute-measured": "Ki", "readout-relation": "=", "numeric-result": 9.3}
